system: HIV in primary human peripheral blood lymphocytes; assay: Primary PBL assay: inhibition of viral replication (p24 & RNA); format: cell-based; details: Human immunodeficiency virus 1, Lymphocyte, primary human lymphocytes infected with HIV, days three and four, read-out: PBL INHIBITION OF VIRAL REPLICATION (p24 & RNA) ED50
Where a name gives a salt, the structure may show the parent alone.
Catalogue of EC50 readings, one per entry.

Q: Return reported EC50. Input compound: CC(C)(C)Nc1cccnc1N1CCN(C(=O)c2cc3ccccc3[nH]2)CC1
Result: 0.001 to 0.01 µM

Q: Return reported EC50. Input compound: CC(C)Nc1cccnc1N1CCN(C(=O)c2cc3cc(N)ccc3[nH]2)CC1
Result: 0.01 µM

Q: Return reported EC50. Input compound: CCOc1ccccc1N1CCN(C(=O)c2cc3ccccc3[nH]2)CC1
Result: > 1 µM

Q: Return reported EC50. Input compound: Cc1cccc2[nH]c(C(=O)N3CCN(c4ncccc4NC(C)C)CC3)cc12
Result: ≤ 0.01 µM

Q: Return reported EC50. Input compound: CCNc1cccnc1N1CCN(C(=O)c2cc3cc(CC)ccc3[nH]2)CC1
Result: 0.01 to 0.1 µM

Q: Return reported EC50. Input compound: CCNc1cccnc1N1CCN(C(=O)c2cc(C)c(OC)c(C)c2)CC1
Result: 1 µM

Q: Return reported EC50. Input compound: CCNc1cccnc1N1CCN(C(=O)c2cc3cc(OC)ccc3[nH]2)CC1 [Example 16A, hydrochloride]
Result: 0.001 µM

Q: Return reported EC50. Input compound: CC(C)Nc1ccc(F)cc1N1CCN(C(=O)c2cc3ccccc3[nH]2)CC1
Result: 0.01 to 0.1 µM

Next compound, please.
Q: Return reported EC50. Input compound: CCNc1cccnc1N1CCN(C(=O)c2cc3ccccc3[nH]2)CC1
Result: 0.01 to 0.1 µM

Value source: patent US5563142A
